- PROTOCOL NOTES: Compound was evaluated for cytotoxic activity against KB cells.
- Assay type: functional, cell-based
- TEST CONTEXT: Homo sapiens
# Lookup of reported IC50 keyed by entry
OBSERVATION TYPE: IC50 (µg/mL)

1) CC(C)=CCC[C@](C)(O)[C@H]1CC[C@](C)([C@@H]2CC[C@H]([C@]3(C)CC[C@@H]([C@](C)(O)CCC=C(C)C)O3)O2)O1; 7
2) CC(=O)O[C@@H](CC[C@@H](O)[C@]1(C)CC[C@H]([C@@](C)(O)CCC=C(C)C)O1)[C@@]1(C)CC[C@H]([C@@](C)(O)CCC=C(C)C)O1; 0.52
3) CC(C)(O)/C=C/C[C@](C)(O)[C@H]1CC[C@@](C)([C@H]2CC[C@H]([C@]3(C)CC[C@H]([C@@](C)(O)C/C=C/C(C)(C)OO)O3)O2)O1; 5.3
